The reported numbers originate from PubChem BioAssay AID652041.

- System: P. falciparum HB3 in RBCs, SYBR Green DNA fluorescence
- experimentDescription: growth inhibition of P. falciparum HB3, dose response, HB3 strain, red blood cells, SYBR Green, cherry-picked (AID 652041);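 note: parasites exposed to compound for 72 hours before the DNA read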
quantity: AC35

compound: Cc1ccc(O)c(C2=NNC(c3ccc(Cl)cc3)C2)c1 (stereo not given)
testTarget: P. falciparum HB3 in RBCs, SYBR Green DNA fluorescence
valueObserved: 3.59 µM
--
compound: Cc1oc2c(c1C(=O)c1ccccc1)C(=O)C(=O)c1ccccc1-2
testTarget: P. falciparum HB3 in RBCs, SYBR Green DNA fluorescence
valueObserved: 3.48 µM
--
compound: FC(F)(F)c1nc(SCc2ccc(Cl)cc2Cl)n[nH]1
testTarget: P. falciparum HB3 in RBCs, SYBR Green DNA fluorescence
valueObserved: 40 µM
--
compound: CCCCNc1c(-c2cccc(-c3ccc(OC)cc3)c2)nc2ccc(C)cn12
testTarget: P. falciparum HB3 in RBCs, SYBR Green DNA fluorescence
valueObserved: 1.65 µM
--
compound: CC(=O)C1=C(c2cccc([N+](=O)[O-])c2)N(C(C)=O)n2c(C)nnc2S1
testTarget: P. falciparum HB3 in RBCs, SYBR Green DNA fluorescence
valueObserved: 0.59 µM
--
compound: O=c1c2ccccc2nc(-c2cccc(Cl)c2)n1O
testTarget: P. falciparum HB3 in RBCs, SYBR Green DNA fluorescence
valueObserved: 28.2 µM
--
compound: O=[N+]([O-])c1cc(C(F)(F)F)ccc1NCCc1c[nH]c2ccc(O)cc12
testTarget: P. falciparum HB3 in RBCs, SYBR Green DNA fluorescence
valueObserved: 24.6 µM
--
compound: Oc1ccc(N=Nc2ccc3c(c2)OCCO3)c2cccnc12
testTarget: P. falciparum HB3 in RBCs, SYBR Green DNA fluorescence
valueObserved: 0.854 µM
--
compound: O=C(c1ccccc1)c1ccc(Cn2cc(-c3ccccc3)nn2)cc1
testTarget: P. falciparum HB3 in RBCs, SYBR Green DNA fluorescence
valueObserved: 40.3 µM
--
compound: O=C(O)c1ccccc1NC(c1ccccc1)c1ccc2cccnc2c1O (stereo not given)
testTarget: P. falciparum HB3 in RBCs, SYBR Green DNA fluorescence
valueObserved: 6.46 µM
